# System: Candida parapsilosis
# Protocol description: Determination of fungal susceptibility (MIC, microdilution in CYG medium)
# Assay type: cell-based
# Condition parameters: single isolate, 2 days at 37° C., growth (OD 405 nm) inhibited to 35% of control or less
# maps each entry to its MIC values, Candida parapsilosis

[
  {
    "Molecule": "Br.CC(C)c1ccc(C2NCc3ccccc3-n3cccc32)cc1 (stereo not drawn)",
    "Value reported": ">10 10^−6 M"
  },
  {
    "Molecule": "Br.CCCCc1ccc(C2NCc3c(Cl)cccc3-n3cccc32)cc1 (stereo not drawn)",
    "Value reported": ">10 10^−6 M"
  },
  {
    "Molecule": "Br.CC(C)(C)c1ccc(C2NCc3c(Cl)cccc3-n3cccc32)cc1 (stereo not drawn)",
    "Value reported": "10 10^−6 M"
  }
]

Ask: For Br.Cc1ccc(C2NCc3ccc(Cl)cc3-n3cccc32)cc1 (stereo not drawn) , what is its reported MIC values, Candida parapsilosis?
Result: >10 10^−6 M

Ask: For CCc1ccc(C2c3cccn3-c3cccc(Cl)c3CN2C)cc1 (stereo not drawn) , what is its reported MIC values, Candida parapsilosis?
Result: >10 10^−6 M

Ask: For "CCc1ccc(C2=NCc3ccccc3-n3cccc32)cc1" , what is its reported MIC values, Candida parapsilosis?
Result: 3.2 10^−6 M

###

# Tested on: Candida parapsilosis
# Protocol description: Determination of fungal susceptibility (MIC, microdilution in CYG medium)
# Type: cell-based
# Condition parameters: single isolate, 2 days at 37° C., growth (OD 405 nm) inhibited to 35% of control or less
# maps each entry to its MIC values, Candida parapsilosis

Before answering, review these 8 worked examples.
[
  {
    "Molecule": "Br.CCCc1ccc(C2NCc3c(Cl)cccc3-n3cccc32)cc1 (stereo not shown)",
    "MIC values, Candida parapsilosis": "3.2 10^−6 M"
  },
  {
    "Molecule": "Br.COc1ccc(C2NCc3c(Cl)cccc3-n3cccc32)cc1 (stereo not shown)",
    "MIC values, Candida parapsilosis": ">10 10^−6 M"
  },
  {
    "Molecule": "Br.CCc1ccc(C2NCc3c(Cl)cccc3-n3cccc32)cc1 (stereo not shown)",
    "MIC values, Candida parapsilosis": "1 10^−6 M"
  },
  {
    "Molecule": "Br.CCc1ccc(C2NCc3ccccc3-n3cccc32)cc1 (stereo not shown)",
    "MIC values, Candida parapsilosis": ">10 10^−6 M"
  },
  {
    "Molecule": "Br.N#Cc1ccc(C2NCc3ccc(Cl)cc3-n3cccc32)cc1 (stereo not shown)",
    "MIC values, Candida parapsilosis": ">10 10^−6 M"
  },
  {
    "Molecule": "Br.Cc1ccc(C2NCc3c(Cl)cccc3-n3cccc32)cc1 (stereo not shown)",
    "MIC values, Candida parapsilosis": ">10 10^−6 M"
  },
  {
    "Molecule": "Br.CC(C)c1ccc(C2NCc3ccc(Cl)cc3-n3cccc32)cc1 (stereo not shown)",
    "MIC values, Candida parapsilosis": ">10 10^−6 M"
  },
  {
    "Molecule": "Br.CCOc1ccc(C2NCc3ccc(Cl)cc3-n3cccc32)cc1 (stereo not shown)",
    "MIC values, Candida parapsilosis": ">10 10^−6 M"
  }
]

Ask: Please tell me: MIC values, Candida parapsilosis of Br.CC(C)c1ccc(C2NCc3c(Cl)cccc3-n3cccc32)cc1 (stereo not shown) , system Candida parapsilosis?
Result: 10 10^−6 M

Ask: Please tell me: MIC values, Candida parapsilosis of Br.Clc1cccc2c1CNC(c1ccsc1)c1cccn1-2 (stereo not shown) , system Candida parapsilosis?
Result: >10 10^−6 M
